These data points were gathered from patent US20240158475A1.

Here the recorded Kd is given for each entry.
Measurement Target: DN-III quality control recombinant protein (produced by Fapon Biotech InC.) (dengue virus)
Procedure Text: BLI, AMC sensor, antibody captured
Kindly answer with a numeric value in nM, unit omitted.

Mutation 1-27 (antibody, V domains shown) VH: EVQLQQSGTELVRPGALVKLSCKASGFNIKDYYVHWVKQRPRQGLEWIGWIDPENGKTIYDPKFQDKASITSDTSTNTAYLQLRSLTSEDTAVYYCVSAYVRFVYWGQGTLVTVSA VL: QIVLTQSPAIMSAFPGERVTMTCSASSSVRYMYWHQQKPGSSPRLLIYDTSNLASGVPVRFSGSGSGTSYSLTISRDEAMDAATYYCQQWSSTPRTFGGGTKLEIKR : 0.121
Mutation 1-8 (antibody, V domains shown) VH: EVQLQQSGTELVRPGALVKLSCKASGFNIKDYYLHWVKQRPRQGLEWIGWIDPENGKTIYDPKFQDKASITSDTSTNTAYLQLRSLTSEDTAVYYCVTAYYRFVYWGQGTLVTVSA VL: QIVLTQSPAIMSAFPGERVTMTCSASTSVRYMYWHQQKPGSSPRLLIYDTSNVASGVPVRFSGSGSGTSYSLTISRDEAMDAATYYCQQWSSFPRTFGGGTKLEIKR : 0.7

Please look at the following binder next.
Data point: Mutation 1-5 (antibody, V domains shown) VH: EVQLQQSGTELVRPGALVKLSCKASGFNIKDYYLHWVKQRPRQGLEWIGWIDPENGKTIYDPKFQDKASITSDTSTNTAYLQLRSLTSEDTAVYYCVSAYYRFVYWGQGTLVTVSA VL: QIVLTQSPAIMSAFPGERVTMTCSASTSVRYMYWHQQKPGSSPRLLIYDTSNVASGVPVRFSGSGSGTSYSLTISRDEAMDAATYYCQQWSSFPRTFGGGTKLEIKR ; Kd = 0.43
